Listed next: entries and their corresponding pKd.
# assayed_system: T1, Recombinant purified human PD-1 protein, residues Leu25-Thr168, with a C-terminal 6-His tag (Homo sapiens, UniProt Q15116)
# T1 construct: programmed cell death protein 1 (PD-1), human, residues Leu25-Thr168; also called programmed cell death protein 1; PD-1-His monomer; source: bought: R&D Systems (catalog# 8986-PD, lot# DDJM0417041)
# T1 sequence (Q15116 25-168): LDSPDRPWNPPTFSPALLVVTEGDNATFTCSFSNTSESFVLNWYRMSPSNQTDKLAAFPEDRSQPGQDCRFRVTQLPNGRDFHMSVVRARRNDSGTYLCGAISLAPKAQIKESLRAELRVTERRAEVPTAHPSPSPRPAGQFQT
# measurement_notes: SPR; Biacore 8K, CMD-200M chip (3D-hydrogel); mAb captured on amine-coupled goat anti-human IgG Fc, PD-1-His monomer as analyte (100 nM top, 3-fold dilutions), 1200 s dissociation; 25 C, HBS-EP+ pH 7.4; 1:1 Langmuir fit, apparent constants
# measurement_context: both partners purified
In simple prose, pKd is minus the logarithm base ten of a concentration in moles per litre.

Example entries and their recorded answers appear below.
>>> obs_value("mAb16 (antibody, V domains shown, IgG4; also called analog of dostarlimab; dostar; source: HEK293 suspension cells, cotransfected, purified (Protein A)) VH: EVQLLESGGGLVQPGGSLRLSCAASGFTFSSYDMSWVRQAPGKGLEWVSTISGGGSYTYYQDSVKGRFTISRDNSKNTLYLQMNSLRAEDTAVYYCASPYYAMDYWGQGTTVTVSS VL: DIQLTQSPSFLSAYVGDRVTITCKASQDVGTAVAWYQQKPGKAPKLLIYWASTLHTGVPSRFSGSGSGTEFTLTISSLQPEDFATYYCQHYSSYPWTFGQGTKLEIK")
8.79
>>> obs_value("mAb23 (antibody, V domains shown, IgG4; also called analog of cemiplimab; cemip; source: HEK293 suspension cells, cotransfected, purified (Protein A)) VH: EVQLLESGGVLVQPGGSLRLSCAASGFTFSNFGMTWVRQAPGKGLEWVSGISGGGRDTYFADSVKGRFTISRDNSKNTLYLQMNSLKGEDTAVYYCVKWGNIYFDYWGQGTLVTVSS VL: DIQMTQSPSSLSASVGDSITITCRASLSINTFLNWYQQKPGKAPNLLIYAASSLHGGVPSRFSGSGSGTDFTLTIRTLQPEDFATYYCQQSSNTPFTFGPGTVVDFR")
8.70
>>> obs_value("mAb17 (antibody, V domains shown, IgG4; also called analog of camrelizumab; camre; source: HEK293 suspension cells, cotransfected, purified (Protein A)) VH: EVQLVESGGGLVQPGGSLRLSCAASGFTFSSYMMSWVRQAPGKGLEWVATISGGGANTYYPDSVKGRFTISRDNAKNSLYLQMNSLRAEDTAVYYCARQLYYFDYWGQGTTVTVSS VL: DIQMTQSPSSLSASVGDRVTITCLASQTIGTWLTWYQQKPGKAPKLLIYTATSLADGVPSRFSGSGSGTDFTLTISSLQPEDFATYYCQQVYSIPWTFGGGTKVEIK")
8.39
>>> obs_value("mAb04 (antibody, V domains shown, IgG4; also called analog of retifanlimab; retifan; source: HEK293 suspension cells, cotransfected, purified (Protein A)) VH: QVQLVQSGAEVKKPGASVKVSCKASGYSFTSYWMNWVRQAPGQGLEWIGVIHPSDSETWLDQKFKDRVTITVDKSTSTAYMELSSLRSEDTAVYYCAREHYGTSPFAYWGQGTLVTVSS VL: EIVLTQSPATLSLSPGERATLSCRASESVDNYGMSFMNWFQQKPGQPPKLLIHAASNQGSGVPSRFSGSGSGTDFTLTISSLEPEDFAVYFCQQSKEVPYTFGGGTKVEIK")
9.23

Attention now turns to another entry.
Q. Tell me pKd reported for mAb03 (antibody, V domains shown, IgG4; also called analog of tislelizumab; tisle; source: HEK293 suspension cells, cotransfected, purified (Protein A)) VH: QVQLQESGPGLVKPSETLSLTCTVSGFSLTSYGVHWIRQPPGKGLEWIGVIYADGSTNYNPSLKSRVTISKDTSKNQVSLKLSSVTAADTAVYYCARAYGNYWYIDVWGQGTTVTVSS VL: DIVMTQSPDSLAVSLGERATINCKSSESVSNDVAWYQQKPGQPPKLLINYAFHRFTGVPDRFSGSGYGTDFTLTISSLQAEDVAVYYCHQAYSSPYTFGQGTKLEIK
A. 9.62
